Target sequence: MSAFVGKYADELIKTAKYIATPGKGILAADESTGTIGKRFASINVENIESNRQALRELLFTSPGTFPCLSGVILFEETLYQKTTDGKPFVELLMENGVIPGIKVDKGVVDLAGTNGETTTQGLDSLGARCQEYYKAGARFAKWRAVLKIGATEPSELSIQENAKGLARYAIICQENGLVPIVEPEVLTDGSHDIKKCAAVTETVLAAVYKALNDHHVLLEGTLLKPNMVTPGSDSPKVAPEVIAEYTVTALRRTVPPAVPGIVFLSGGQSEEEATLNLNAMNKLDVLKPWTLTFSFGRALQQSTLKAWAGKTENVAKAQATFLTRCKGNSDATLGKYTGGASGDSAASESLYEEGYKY
assayEndpoint: Ki (µM)
Kindly provide the numeric value in µM only, without the unit symbol.

// sample O=c1c(O)c(-c2ccc(O)cc2O)oc2cc(O)cc(O)c12 [morin, 3,5,7,2′,4′-pentahydroxyflavone] , its Ki was 63

Data provenance is paper doi:10.1101/2024.03.29.587371v1.
